biological target: FGF14 (Homo sapiens); test: Surface plasmon resonance binding to FGF14; settings: read-out: kon FGF14
Sequence (Q92915 64-252 isoform Q92915-2): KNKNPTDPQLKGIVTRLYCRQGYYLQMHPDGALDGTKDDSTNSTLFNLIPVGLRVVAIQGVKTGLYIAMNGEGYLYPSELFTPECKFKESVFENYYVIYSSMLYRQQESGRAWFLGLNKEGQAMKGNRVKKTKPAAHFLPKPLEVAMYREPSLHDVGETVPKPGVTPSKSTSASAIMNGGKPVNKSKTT
Residues, ends and D or L forms follow the SMILES beside them. *: point of attachment. Fmoc = O=C(OCC1c2ccccc2-c2ccccc21)*; Decanoyl = CCCCCCCCCC(=O)*; Bz = O=C(c1ccccc1)*; OtBu = CC(C)(C)O*; tBu = CC(C)(C)*
kon values, listed per item
observed_property: kon (M⁻¹ s⁻¹)

INSERT INTO assay_data (compound, result_value) VALUES
  ('CC(C)[C@H](NC(=O)[C@H](Cc1ccc(OC(C)(C)C)cc1)NC(=O)[C@H](Cc1ccc(OC(C)(C)C)cc1)NC(=O)OCC1c2ccccc2-c2ccccc21)C(N)=O [Compound 12] (Fmoc-Tyr(tBu)-Tyr(tBu)-Val-NH2)', 6440),
  ('CC(=O)N[C@@H](CCC(=O)OC(C)(C)C)C(=O)N[C@@H](Cc1ccc(OC(C)(C)C)cc1)C(=O)N[C@@H](Cc1ccc(OC(C)(C)C)cc1)C(=O)N[C@H](C(N)=O)C(C)C [Compound 17] (Ac-E(OtBu)Y(tBu)Y(tBu)V-NH2)', 6030),
  ('CCCCCCCCCC(=O)N[C@@H](CCC(=O)OC(C)(C)C)C(=O)N[C@@H](Cc1ccc(OC(C)(C)C)cc1)C(=O)N[C@@H](Cc1ccc(OC(C)(C)C)cc1)C(=O)N[C@H](C(N)=O)C(C)C [Compound 22] (Decanoyl-E(OtBu)Y(tBu)Y(tBu)V-NH2)', 690),
  ('CC(C)[C@H](NC(=O)[C@H](Cc1ccc(OC(C)(C)C)cc1)NC(=O)[C@H](Cc1ccc(OC(C)(C)C)cc1)NC(=O)[C@H](CCC(=O)OC(C)(C)C)NC(=O)c1ccccc1)C(N)=O [Compound 19] (Bz-E(OtBu)Y(tBu)Y(tBu)V-NH2)', 2060);

----------
target: FGF14 (Homo sapiens); experiment: Surface plasmon resonance binding to FGF14; settings: read-out: koff FGF14
Residues, ends and D or L forms follow the SMILES beside them. *: point of attachment. Fmoc = O=C(OCC1c2ccccc2-c2ccccc21)*; Decanoyl = CCCCCCCCCC(=O)*; Bz = O=C(c1ccccc1)*; OtBu = CC(C)(C)O*; tBu = CC(C)(C)*
koff values, listed per item
observed_property: koff (s⁻¹)

INSERT INTO measurements (compound, result_value) VALUES
  ('CC(=O)N[C@@H](CCC(=O)OC(C)(C)C)C(=O)N[C@@H](Cc1ccc(OC(C)(C)C)cc1)C(=O)N[C@@H](Cc1ccc(OC(C)(C)C)cc1)C(=O)N[C@H](C(N)=O)C(C)C [Compound 17] (Ac-E(OtBu)Y(tBu)Y(tBu)V-NH2)', 0.088),
  ('CC(C)[C@H](NC(=O)[C@H](Cc1ccc(OC(C)(C)C)cc1)NC(=O)[C@H](Cc1ccc(OC(C)(C)C)cc1)NC(=O)[C@H](CCC(=O)OC(C)(C)C)NC(=O)c1ccccc1)C(N)=O [Compound 19] (Bz-E(OtBu)Y(tBu)Y(tBu)V-NH2)', 0.013),
  ('CC(C)[C@H](NC(=O)[C@H](Cc1ccc(OC(C)(C)C)cc1)NC(=O)[C@H](Cc1ccc(OC(C)(C)C)cc1)NC(=O)OCC1c2ccccc2-c2ccccc21)C(N)=O [Compound 12] (Fmoc-Tyr(tBu)-Tyr(tBu)-Val-NH2)', 0.0186),
  ('CCCCCCCCCC(=O)N[C@@H](CCC(=O)OC(C)(C)C)C(=O)N[C@@H](Cc1ccc(OC(C)(C)C)cc1)C(=O)N[C@@H](Cc1ccc(OC(C)(C)C)cc1)C(=O)N[C@H](C(N)=O)C(C)C [Compound 22] (Decanoyl-E(OtBu)Y(tBu)Y(tBu)V-NH2)', 0.109);

Numbers sourced from paper PMC7435778.
